apparent KD of MS2 coat protein listing for selected sequences.
# Tested on: MS2 coat protein
# TEST DETAILS: apparent KD of MS2 coat protein; designed switch direction (-1 OFF switch, 1 ON switch): 1; higher = weaker reporter binding
# EXPERIMENTAL PARAMETERS: input ligand: none
Quick note: give the figure in nM, leave out the unit.

The cases that follow already have their apparent KD of MS2 coat protein on record.
seq_text="UCUGCAAGAACAGGAUAUGGGUUCAGAGCGGGAGUGCGCUUUGAUACAUGAGGAUCACCCAUGUCCCAGAAGGGUUCAAGCGGC [Maedraedbi] (Eterna round: R96, puzzle: Same State NG 2)" measurement=188
seq_text="AGGCUCAGACUAGGAUAUGAUCAUGGCGCUUCGGCGCAUACAUGAGGAUCACCCAUGUAAAGUGAUCAGAAGGAGUCUGAGCCA [SSNG2/7-C1] (Eterna round: R96, puzzle: Same State NG 2)" measurement=13.6
seq_text="GGUAUGGACACAGGAUAUGCUUACGAAACGUAAGCAGAAGGGUGAACAUGAGGAUCACCCAUGUACGUACCAGGGCGUGAGCCC [JL SSNG1 1.76] (Eterna round: R96, puzzle: Same State NG 1)" measurement=92.4
seq_text="CAGAGCCCAUGGGCCUGACAUGAGGAUCACCCAUGUGGCUUUGAGGAUAUAAGCGGAAACAGCGCUUAGAAGGCGAAGCCUAAC [Rearisve] (Eterna round: R96, puzzle: Same State NG 3)" measurement=41.9

Param readout= apparent KD of MS2 coat protein; system= MS2 coat protein; entry= UGUUGUUACGCAGGAUAUGGUCACAUGAGGAUCACCCAUGUAUUGUCGAUGCUAUGUGGAUUUGAUCAGAAGGGCGGGUUAACA [SameState NG2 #100] (Eterna round: R96, puzzle: Same State NG 2) ; returns value.
103

----------
apparent KD of MS2 coat protein listing for selected sequences.
# System: MS2 coat protein
# TEST DETAILS: apparent KD of MS2 coat protein; designed switch direction (-1 OFF switch, 1 ON switch): -1; higher = weaker reporter binding
# EXPERIMENTAL PARAMETERS: input ligand: microRNA oligo, concentration not stated
Quick note: give the figure in nM, leave out the unit.

The cases that follow already have their apparent KD of MS2 coat protein on record.
seq_text="UUAGAUAGGUCAGGAUAUCGAUGAUUGAAUUGUAUGAUUUACAUGAGGAUCACCCAUGUUUUGUACGAGAAGGGACGUUAGAUU [JR_ExcNG2_Sub018] (Eterna round: R96, puzzle: Exclusion NG 2)" measurement=17.6
seq_text="AAACGGCAGGGAGGAUAUGCUUACCUGGGUCGUCUUCAAACAUGAGGAUCACCCAUGUAGUCGACGCAGAAGGCCCUCAAAGCC [JL ViennaUCT Ontiis mod] (Eterna round: R96, puzzle: Exclusion NG 2)" measurement=18

Pending sequence:
Can you look up the measured apparent KD of MS2 coat protein of ACAUGAGGAUCACCCAUGUCAGGCGGGUCUACUCCGGCUGUUGAGGAUAUAGUUCGGUAUCCGCGCUAGAAGGUGAGGGCCGGC [Aenatbe mod 23] (Eterna round: R96, puzzle: Exclusion NG 3) for me?
14.9

----------
# System: MS2 coat protein
# TEST DETAILS: apparent KD of MS2 coat protein; designed switch direction (-1 OFF switch, 1 ON switch): -1; higher = weaker reporter binding
# EXPERIMENTAL PARAMETERS: Eterna round: R95; input ligand: microRNA oligo, concentration not stated
MEASUREMENT LABEL: apparent KD of MS2 coat protein
Provide a numeric answer, followed by its unit.

seq_text="AAGGAUAGAGGAUAUACAUAGAUACAGAUUCAUGUGGAACUACAUGAGGAUCACCCAUGUAGAAGGCUAUCCUA [Fiskers Ex 2 - 9] (puzzle: Exclusion 2)" measurement="35.9 nM"
seq_text="CAAAAGGUAGGAUAUACGAAAAAAAAGGGUAGAAAAAAAACACAUGAGGAUCACCCAUGUAGAAGGACCAAAAC [salish99_ex2_r3_042] (puzzle: Exclusion 2)" measurement="22.6 nM"

Can you look up the measured apparent KD of MS2 coat protein of GGAAUACAUGAGGAUCACCCAUGUAAGGAUAUGCUGAAUAACACGGAAUUAACGUGCAGCAGAAGGUACAAAUG [Mat - Mod of my Eli Mod D44] (puzzle: Exclusion 1) for me?
112 nM

----------
# Test system: MS2 coat protein
# TEST DETAILS: apparent KD of MS2 coat protein; higher = weaker reporter binding
# EXPERIMENTAL PARAMETERS: Eterna round: R107; input ligand: arginine 13.2 mM
MEASUREMENT LABEL: apparent KD of MS2 coat protein (nM)
Quick note: give the figure in nM, leave out the unit.

The cases that follow already have their apparent KD of MS2 coat protein on record.
seq_text="GAUGAACUAUUUGAUACCAGACUACAUGAGGAUCACCCAUGUGAGUUUAUACUUCUGUCAGUCCCUUGGCAGCAAAUAGUUUAUC [XTheo B #5]" measurement=21.5
seq_text="GGAGGUACCCGAAGGAGCGACAUGAGGAUCACCCAUGUCUCCCGUUAUGGGAGUUCCUUAGGUCAGGUAGGUCGCGGGUACCUCC [#1 Exclusion - Arginine B Attempt #1 (Inspired by Omei)]" measurement=92.7
seq_text="ACACAAUACAUGAGGAUCACCCAUGUAUAACGAGGACCGGUACGGCCGCCACUCGAAUACUGUAAUCCUCGGAAUAUUAUGUGAA [JR_ExcTryptA_Sub003]" measurement=32.9
seq_text="ACAUGAGGAUCACCCAUGUUCAUGCGGGAAGGAGCGUGCGGAAGCACAGGUAGGUCGCCCUCAAUAUCUAACGUUACGUUCAUGA [#26 Same State - Arginine A]" measurement=13.7
seq_text="AAAUAUAACUCGGCCGCCACUGACAUGAGGAUCACCCAUGUUAUAUUUUAUACAUGAGGAUCACCCAGGACCGGGAGAAUAUAAA [Jonah 1]" measurement=61.7

Pending sequence:
Can you look up the measured apparent KD of MS2 coat protein of GAGCGCGUGGACUGGCGUGCUCCGCUCCGUCGAGGACCGGUACGGCCGCCACUCGACAUGAGGAUCACCCAUGUGUGCGCUCGCG [#1 Exclusion - Tryptophan A Attempt #19 (HarryS)] for me?
32.9

----------
# Tested on: MS2 coat protein
# TEST DETAILS: apparent KD of MS2 coat protein; designed switch direction (-1 OFF switch, 1 ON switch): -1; higher = weaker reporter binding
# EXPERIMENTAL PARAMETERS: Eterna round: R95; input ligand: microRNA oligo, concentration not stated
apparent KD of MS2 coat protein listing for selected sequences.
Quick note: give the figure in nM, leave out the unit.

The cases that follow already have their apparent KD of MS2 coat protein on record.
seq_text="GGUGGACAUGAGGAUCACCCAUGUGAGGAUAUCGGCUGGUACGUGGUGGCUGGCAUCUCGAGAAGGCACAUAGU [Exclusion 1 V66] (puzzle: Exclusion 1)" assayed_system="MS2 coat protein" measurement_label="apparent KD of MS2 coat protein" measurement_unit=nM measurement=83.6
seq_text="AAUAGCAAGUAGAUCCUAAACAUGAGGAUCACCCAUGUGCUCGUCUUGUAAAGUACUAUCACGAAAGUGAUAGUACA [Sensor 3, v1 - 57] (puzzle: Sensor v3, turn-off variant 1)" assayed_system="MS2 coat protein" measurement_label="apparent KD of MS2 coat protein" measurement_unit=nM measurement=300
seq_text="UCGUGGUAAAUCAGAAGUUUCCUGAGCGGAGGAACUUUGACAUGAGGAUCACCCAUGUUGCUUUUUGCUCAUCUUAA [JR_SV3TOV2_Sub043] (puzzle: Sensor v3, turn-off variant 2)" assayed_system="MS2 coat protein" measurement_label="apparent KD of MS2 coat protein" measurement_unit=nM measurement=41.8
seq_text="GCUUUUCUUUUCCUUUCUUACAUGAGGAUCACCCAUGUUUCUUGUCGCGCUCGCGUUGCUCGUCUGUCUGUCUGUUG [salish99_TOv1_r3_079] (puzzle: Sensor v3, turn-off variant 1)" assayed_system="MS2 coat protein" measurement_label="apparent KD of MS2 coat protein" measurement_unit=nM measurement=28.9

Pending sequence:
Can you look up the measured apparent KD of MS2 coat protein of CAUGAUCUUCGGAUCAUGUACAUGAGGAUCACCCAUGUGACGAGUUACAUGAAAAACAAGCUUUUUGCUCGUCUUAU [Sensor v3 - Turn-off variant 1 - 9] (puzzle: Sensor v3, turn-off variant 1) for me?
121

----------
# Test system: MS2 coat protein
# TEST DETAILS: apparent KD of MS2 coat protein; designed switch direction (-1 OFF switch, 1 ON switch): 1; higher = weaker reporter binding
# EXPERIMENTAL PARAMETERS: input ligand: FMN 200 uM
MEASUREMENT LABEL: apparent KD of MS2 coat protein (nM)
Quick note: give the figure in nM, leave out the unit.

Can you look up the measured apparent KD of MS2 coat protein of ACAUGAGAGUGAGGAUAUCAUGUACCUACAUGUGACAUGAGGAUCACCCAUGUGGUAAGUAUGACUGAGAAGGCACAGAUAUGU [Equivalance 90 - Jieux - Same State NG 2] (Eterna round: R96, puzzle: Same State NG 2) for me?
70.3

Same lookup for CGGCUCCGUGGAGGAUAUGGGCCUGCCCGGGAUACCGGGCCUAACACAUGAGGAUCACCCAUGUCCCAGAAGGCCGCUGGAGCC [Cebeladi] (Eterna round: R96, puzzle: Same State NG 2) , please.
12.7

Same lookup for GUUACAUGAGGAUCACCCAUGUAUGUGUGGGAGUAAGUGUCUUAGGAUAUCUAUCAUUUAAUUAAAGAGAAGGAAGAUUGUUGU [JMF's solution 98] (Eterna round: R96, puzzle: Same State NG 3) , please.
86.9

Same lookup for GGAGCCGGCCUAGGAUAUUUCAUAAUAAAACAUGAGGAUCACCCAUGUAGGCCAGAAGGCCUUGGGAAGAAGGAGGUCGGCUCC [Loop Effect - U26] (Eterna round: R96, puzzle: Same State NG 2) , please.
12.1

Same lookup for UGGCUGGUGCUAGGAUAUGCAUGAGGAAUCCUCGUAGAAGGAGCACGACAUGAGGAUCACCCAUGUAGCCGUCCGUAGACGGCU [salish99_SSNG1_r04_009] (Eterna round: R96, puzzle: Same State NG 1) , please.
98.7

Same lookup for UGGUACAUGGGAGGAUAUCUCAUGGUGACAUGAGGAUCACCCAUGUAGUUGGACCGGAAACGGUGAGAGAAGGCCCAUGUACCU [JL SSNG1 3.74] (Eterna round: R96, puzzle: Same State NG 2) , please.
72.1

Same lookup for UUUCUUCUCGUAGGAUAUGUAGGAUAUGCCUACAUGAGGAUCACCCAUGUUCGCAUGGCAGAAGGACAGAAGGACGAUCACCCU [pwkr ssNG2 2FMN + 1F5.9] (Eterna round: R96, puzzle: Same State NG 2) , please.
55.4

Same lookup for GCUCGACGUACGGCCUACAUGAGGAUCACCCAUGUGACUGGGCAGGAUAUCUAAAUGCAGAAUGUAGAGAAGGGCCCGUCGAGC [SameState NG3 #50] (Eterna round: R96, puzzle: Same State NG 3) , please.
323

Same lookup for GUAAAGAAAUAAGGAUAUUGAAUACAUAUGUUUAACAUGAGGAUCACCCAUGUGGGUUGCGGUAUCGAGAAGGUAUAAUAAAAG [Mat - Same State NG 2 - JL mod - D8] (Eterna round: R96, puzzle: Same State NG 2) , please.
162

Source of measurements: the supplement of paper PMC9170038
